System: blackgrass (Aloepecurus myosuroides)
test: Preemergence herbicidal activity, blackgrass
Assay type: in vivo
assayContext: Rate of Application 0.3 Kg/Ha, examined after 12-17 days
Recorded PREEMERGENCE HERBICIDAL ACTIVITY (% CONTROL) ALOMY by entry
measuredProperty: PREEMERGENCE HERBICIDAL ACTIVITY (% CONTROL) ALOMY (%)

[[record]]
compound = "Cn1c(C(F)(F)F)cc(=O)n(-c2c(F)cc(Cl)c3oc(NS(C)(=O)=O)nc23)c1=O"
measurementunit = "%"
measured = 50

[[record]]
compound = "Cn1c(C(F)(F)F)cc(=O)n(-c2c(F)cc(Cl)c3[nH]cnc23)c1=O"
measurementunit = "%"
measured = 100

[[record]]
compound = "CC(=O)OC(c1ccccc1)c1nc2c(-n3c(=O)cc(C(F)(F)F)n(C)c3=O)c(F)cc(Br)c2o1 (centres unmarked)"
measurementunit = "%"
measured = 90

[[record]]
compound = "Cc1nc2c(-n3c(=O)cc(C(F)(F)F)n(C)c3=O)c(F)cc(Br)c2o1"
measurementunit = "%"
measured = 80

[[record]]
compound = "C=Cc1cc2c(Cl)cc(F)c(-n3c(=O)cc(C(F)(F)F)n(C)c3=O)c2o1"
measurementunit = "%"
measured = 80

